// data source = ChEMBL document CHEMBL4699525

Tested on: Bacillus subtilis
experiment-summary: Antibacterial activity against Bacillus subtilis assessed as inhibition of bacterial growth incubated for 24 hrs by agar well diffusion method; note: test concentration or dose not given here
Type: functional
Calls of active or inactive are those of the source. No cut-off for these calls is given here.
result-type: diameter of the inhibition zone (DIZ)

• COc1cccc(NC(=O)Cn2cc(COc3ccc4c(c3)CCC4)nn2)c1 = inactive
• Cc1cc([N+](=O)[O-])ccc1NC(=O)Cn1cc(COc2ccc3c(c2)CCC3)nn1 = inactive
• COc1ccccc1-n1cc(COc2ccc3c(c2)CCC3)nn1 = inactive
• CN(C)[C@@H]1C(O)=C(C(N)=O)C(=O)[C@@]2(O)C(O)=C3C(=O)c4c(O)cccc4[C@@](C)(O)[C@H]3C[C@@H]12 [TETRACYCLINE] = 32 mm
• Cc1ccc(-n2cc(COc3ccc4c(c3)CCC4)nn2)cc1 = inactive

Request: Would you mind telling me what diameter of the inhibition zone (DIZ) value was observed for Brc1ccccc1-n1cc(COc2ccc3c(c2)CCC3)nn1 ?
Response: 10 mm

Request: Please look up its diameter of the inhibition zone (DIZ): COc1ccccc1NC(=O)Cn1cc(COc2ccc3c(c2)CCC3)nn1
Response: 10 mm

Request: Look up diameter of the inhibition zone (DIZ): Cc1cccc(-n2cc(COc3ccc4c(c3)CCC4)nn2)c1
Response: inactive

Request: Suppose we examine the molecule O=C(Cn1cc(COc2ccc3c(c2)CCC3)nn1)Nc1ccccc1Cl ; what diameter of the inhibition zone (DIZ) value has been reported?
Response: inactive

Request: I am curious: what diameter of the inhibition zone (DIZ) value has been reported for O=[N+]([O-])c1cccc(-n2cc(COc3ccc4c(c3)CCC4)nn2)c1 ?
Response: 12 mm
